# Test system: U2OS
# assay.procedure: Multiplex assay against U2OS
# Format: toxicity, cell-based
# assay.conditions: human, 12 h, 10 µM, compound concentration 10 uM, number of replicates 2
parameter.measured: Population Hoechst High Intensity Objects (%)
Just the number in %, nothing appended.

Lab note: measured Population Hoechst High Intensity Objects (%) of Cc1cc(C2CCCNC2)ccc1Nc1ncc(Br)c(NCc2cccc3c2C(C)(C)C(=O)N3)n1 (stereo not drawn) was 0

// `CS(=O)(=O)c1ccc(C(=O)Nc2cccc(COc3ccc(Br)cc3CN[C@H]3CCC[C@@H]3O)c2)c(Cl)c1.O=CO` : Population Hoechst High Intensity Objects (%) value = 0

Looking up COc1nc2ccc([C@@](O)(c3ccc(Cl)cc3)c3cncn3C)cc2c(Cl)c1Cc1ccc(-n2cccn2)cc1 [JNJ-53721590] , I see its Population Hoechst High Intensity Objects (%) listed as 0

# Population Hoechst High Intensity Objects (%) (molecule: `CN[C@@H]1CC[C@@H](c2ccc(Cl)c(Cl)c2)c2ccccc21.Cl` ) is 0

Looking up `CN1CCc2cc(Cl)c(O)cc2[C@@H](c2ccccc2)C1.Cl` , I see its Population Hoechst High Intensity Objects (%) listed as 0

----------
# System: HEK-293T
# assay.procedure: Multiplex assay against HEK293T
# Assay type: toxicity, cell-based
# assay.conditions: human, 12 h, 10 µM, compound concentration 10 uM, number of replicates 2
parameter.measured: Population Tubulin-Different-Phenotype (%)
Response body: numeric value in %, unit text excluded.

Example entries begin here.
| compound | target.of.assay | unit.abbrev | experimental.value |
| --- | --- | --- | --- |
| CCc1cnn2c(NCc3ccc[n+]([O-])c3)cc(N3CCCCC3CCO)nc12 (centres undefined) | HEK-293T | % | 86 |
| Cc1cc(C2CCCNC2)ccc1Nc1ncc(Br)c(NCc2cccc3c2C(C)(C)C(=O)N3)n1 (centres undefined) | HEK-293T | % | 95 |
| CN[C@@H]1CC[C@@H](c2ccc(Cl)c(Cl)c2)c2ccccc21.Cl | HEK-293T | % | 96 |

// next entry
Short answer for `COc1nc2ccc([C@@](O)(c3ccc(Cl)cc3)c3cncn3C)cc2c(Cl)c1Cc1ccc(-n2cccn2)cc1` : Population Tubulin-Different-Phenotype (%) was 94

----------
# Tested on: HEK-293T
# assay.procedure: Multiplex assay against HEK293T
# Format: toxicity, cell-based
# assay.conditions: human, 24 h, 10 µM, compound concentration 10 uM, number of replicates 2
parameter.measured: Population Healthy Nuclei (%)
Provide only the numeric value, understood in %.

Solved cases below.
| compound | target.of.assay | parameter.measured | unit.abbrev | experimental.value |
| --- | --- | --- | --- | --- |
| Cc1ccc(C(=O)Nc2cc(N3CCN(C)CC3)cc(C(F)(F)F)c2)cc1-n1cc(-c2cnn(C)c2C)nn1.Cl | HEK-293T | Population Healthy Nuclei (%) | % | 83 |
| CCCNc1ccc2ncc(-c3ccncc3)n2n1 | HEK-293T | Population Healthy Nuclei (%) | % | 87 |
| CC1=C(C)C(=O)C(C(C)(C)CC(=O)N(CCCCSC[C@H]2O[C@@H](n3cnc4c(N)ncnc43)[C@H](O)[C@@H]2O)Cc2cccc(-c3ccc(Cl)cc3)c2)=C(C)C1=O | HEK-293T | Population Healthy Nuclei (%) | % | 81 |
| CC(C)S(=O)(=O)c1ccccc1Nc1nc(N[C@@H]2CCCN(CCCCCCCNC(=O)COc3cccc4c3C(=O)N(C3CCC(=O)N(C)C3=O)C4=O)C2)ncc1Cl (stereo partly specified) | HEK-293T | Population Healthy Nuclei (%) | % | 78 |
| CCc1cnn2c(NCc3ccc[n+]([O-])c3)cc(N3CCCCC3CCO)nc12 (stereo unspecified) | HEK-293T | Population Healthy Nuclei (%) | % | 88 |

# next compound below
Population Healthy Nuclei (%) recorded for this compound, `Cc1c(C(=O)Nc2ccc(N3C[C@@H](C)O[C@@H](C)C3)nc2)cccc1-c1ccc(OC(F)(F)F)cc1` , is 83

----------
Below: a set of entries, each annotated with reported Population Normal (%).
# System: Fibroblast
# assay.procedure: Multiplex assay against human fibroblast
# Type: toxicity, cell-based
# assay.conditions: 24 h, 1 µM, compound concentration 1 uM, number of replicates 2
Report only the number, with the unit % understood.

| compound | experimental.value |
| --- | --- |
| CS(=O)(=O)c1ccc(C(=O)Nc2cccc(COc3ccc(Br)cc3CN3CC[C@@H](O)C3)c2)c(Cl)c1.O=CO | 100 |
| COc1cccc(Cn2cc(C(=O)Nc3ccc(C)c(S(=O)(=O)N4CCOCC4)c3)c(-c3ccc(C)cc3)n2)c1 | 100 |
| N=C(N)NCCC[C@H](NC(=O)COCC(c1ccccc1)c1ccccc1)C(=O)O.O=C(O)C(F)(F)F | 100 |
| CCCNc1ccc2ncc(-c3ccncc3)n2n1 | 100 |
| CCc1cnn2c(NCc3ccc[n+]([O-])c3)cc(N3CCCCC3CCO)nc12 (configuration not stated) | 100 |

Let us move to another entry and its Population Normal (%).
`Cc1onc(-c2ccccc2Cl)c1C(=O)N(C)c1ccc(Cl)cc1` on Fibroblast gives Population Normal (%) = 100

----------
The molecules listed here are annotated with their Population Normal (%).
# Test system: HEK-293T
# assay.procedure: Multiplex assay against HEK293T
# Assay type: toxicity, cell-based
# assay.conditions: human, 24 h, 1 µM, compound concentration 1 uM, number of replicates 2
Write the answer as a number in %, unit excluded.

Consider the reported Population Normal (%) for these molecules:
| molecule | target.of.assay | Population Normal (%) |
| --- | --- | --- |
| CN(C)CC#Cc1ccc2[nH]c3c(c2c1)-c1nc(N)ncc1CCC3 | HEK-293T | 88 |
| COc1cc(C(=O)NC2CCN(C)CC2)ccc1Nc1ncc(C(F)(F)F)c(NCc2ccc(C)cc2N(C)S(C)(=O)=O)n1.O=CO.O=CO | HEK-293T | 87 |
| CCCN(CCc1cccs1)[C@H]1CCc2c(O)cccc2C1 | HEK-293T | 91 |
| CC1=C(C)C(=O)C(C(C)(C)CC(=O)N(CCCCSC[C@H]2O[C@@H](n3cnc4c(N)ncnc43)[C@H](O)[C@@H]2O)Cc2cccc(-c3ccc(Cl)cc3)c2)=C(C)C1=O | HEK-293T | 91 |

Reported Population Normal (%) ( CC(C)S(=O)(=O)c1ccccc1Nc1nc(N[C@@H]2CCCN(CCCCCCCNC(=O)COc3cccc4c3C(=O)N(C3CCC(=O)N(C)C3=O)C4=O)C2)ncc1Cl (some centres not stated) ) = 92

----------
# System: U2OS
# assay.procedure: Multiplex assay against U2OS
# Format: toxicity, cell-based
# assay.conditions: human, 48 h, 10 µM, compound concentration 10 uM, number of replicates 2
parameter.measured: Population Apoptotic (%)
Supply the numeric figure in %, leaving out any unit text.

Solved entries (count: 3):
| smiles.representation | unit.abbrev | Population Apoptotic (%) |
| --- | --- | --- |
| CS(=O)(=O)c1ccc(C(=O)Nc2cccc(COc3ccc(Br)cc3CN[C@H]3CCC[C@@H]3O)c2)c(Cl)c1.O=CO | % | 92 |
| CN(C)CC#Cc1ccc2[nH]c3c(c2c1)-c1nc(N)ncc1CCC3 | % | 50 |
| COc1cc(C(=O)NC2CCN(C)CC2)ccc1Nc1ncc(C(F)(F)F)c(NCc2ccc(C)cc2N(C)S(C)(=O)=O)n1.O=CO.O=CO | % | 92 |

Reported Population Apoptotic (%) ( `CN1CCN(c2ccc(-n3cc(-c4ccncc4OCC4CCNCC4)cn3)cc2)CC1` ) = 90

----------
# Tested on: Fibroblast
# assay.procedure: Multiplex assay against human fibroblast
# Assay type: toxicity, cell-based
# assay.conditions: 24 h, 1 µM, compound concentration 1 uM, number of replicates 2
# strict inequality: Population Pyknosed Nuclei (%) < 20% yields criterion met, everything else yields criterion not met

Look over these answered cases.
| smiles.representation | qualitative.label |
| --- | --- |
| Cc1cc(NC(=O)c2cccc(NC(=O)/C=C/CN(C)C)c2)ccc1Nc1nccc(-c2cccnc2)n1 | criterion not met |
| COc1cc(Nc2cnc(C#N)c(O[C@H](C)CN(C)C)n2)ncc1-c1cnn(C)c1 | criterion met |
| CS(=O)(=O)c1ccc(NC(=O)c2cccc(COc3ccc(Br)cc3CNCCO)c2)c(Cl)c1.O=CO | criterion met |
| CCn1c(-c2nonc2N)nc2cncc(C(=O)N3CC[C@H](N)C3)c21.Cl | criterion met |

Attention now turns to another entry.
Data request: Criterion: Population Pyknosed Nuclei (%) strictly below 20%. Is it met by `CS(=O)(=O)c1ccc(C(=O)Nc2cccc(COc3ccc(Br)cc3CN3CCC[C@H](O)C3)c2)c(Cl)c1.O=CO` ?
Data returned: criterion not met

----------
# Test system: HEK-293T
# assay.procedure: Multiplex assay against HEK293T
# Format: toxicity, cell-based
# assay.conditions: human, 24 h, 1 µM, compound concentration 1 uM, number of replicates 2
parameter.measured: Population Healthy Nuclei (%)
Response body: numeric value in %, unit text excluded.

Example results:
| compound | target.of.assay | parameter.measured | experimental.value |
| --- | --- | --- | --- |
| NCC1CCC(CNc2nc(NCc3ccccc3OC(F)(F)F)ncc2[N+](=O)[O-])CC1 (stereo not given) | HEK-293T | Population Healthy Nuclei (%) | 85 |
| CCc1cnn2c(NCc3ccc[n+]([O-])c3)cc(N3CCCCC3CCO)nc12 (stereo not given) | HEK-293T | Population Healthy Nuclei (%) | 86 |

Given the compound C[C@@H](Oc1cc(-n2cnc3ccc(OC4CCN(C)CC4)cc32)sc1C(N)=O)c1ccccc1Cl [GSK-579289A] and test system HEK-293T, the measured Population Healthy Nuclei (%) is 75

Log: HEK-293T, compound `CC1=C(C)C(=O)C(C(C)(C)CC(=O)N(CCCCSC[C@H]2O[C@@H](n3cnc4c(N)ncnc43)[C@H](O)[C@@H]2O)Cc2cccc(-c3ccc(Cl)cc3)c2)=C(C)C1=O` , Population Healthy Nuclei (%) = 87

Kindly note: HEK-293T, `CS(=O)(=O)c1ccc(C(=O)Nc2cc(F)cc(COc3ccc(Br)cc3CN3CC[C@H](O)C3)c2)c(Cl)c1.O=CO` , Population Healthy Nuclei (%) value reported: 82

Field Population Healthy Nuclei (%) (system: HEK-293T) for entry `CCCCOc1c(C(=O)c2c(F)cc(C)cc2F)c[nH]c2nncc1-2` = 85

Record O=C(NCc1ccc(F)cc1)N1CCN2C(=O)OC(c3ccccc3)(c3ccccc3)C2C1 (stereo not given) ; system HEK-293T; Population Healthy Nuclei (%) = 83

Simply: `CN[C@@H]1CC[C@@H](c2ccc(Cl)c(Cl)c2)c2ccccc21.Cl` , HEK-293T, Population Healthy Nuclei (%) = 88

Bench note, HEK-293T: Br.Cc1cccc(C2CN(C)CCc3c2cc(O)c(O)c3Cl)c1 (stereo not given) , Population Healthy Nuclei (%) reads 89

Record `COc1cc(Br)c(S(=O)(=O)Nc2ccc(C(F)(F)F)c(O[C@@H]3CCN(C)C3)c2)cc1OC` has HEK-293T Population Healthy Nuclei (%) equal to 86
